Values from patent US9718825B2

# Test system: SGK-1 dependent phosphorylation of GSK3beta in U2OS cells
# test_protocol: SGK-1 dependent phosphorylation of GSK3beta in U2OS cells overexpressing recombinant SGK-1 and GSK3beta
# Type: cell-based, human
# measurement_parameters: U2OS cells, 6 h incubation, ratio of phosphorylated GSK3beta to total GSK3beta; read-out: IC50 values for inhibition of SGK-1 dependent phosphorylation of GSK3beta in U2OS cells
reported_property: IC50 (nM)
Please reply with the bare figure in nM and do not write the unit itself.

CC(C)COc1nc(-c2ccc(NS(=O)(=O)c3ccccc3F)cc2)nc2[nH]nc(N)c12 [Example 331]; 240
Cc1ccc(C#N)c(S(=O)(=O)Nc2ccc(-c3nc(OC4CCN(C)CC4)c4cn[nH]c4n3)cc2)c1 [Example 314]; 250

Q: Could you please provide reported IC50 for COc1ccc(Cl)c(S(=O)(=O)Nc2ccc(-c3ncc4c(N)n[nH]c4n3)cc2)c1 [Example 461] ? Thanks!
A: 260

Q: Could you please provide reported IC50 for CC(C)COc1nc(-c2ccc(NS(=O)(=O)c3cc(Cl)ccc3Cl)cc2)nc2[nH]nc(N)c12 [Example 310] ? Thanks!
A: 220

----------
# System: SGK-1 dependent phosphorylation of GSK3beta in U2OS cells
# test_protocol: SGK-1 dependent phosphorylation of GSK3beta in U2OS cells overexpressing recombinant SGK-1 and GSK3beta
# Assay type: cell-based, human
# measurement_parameters: U2OS cells, 6 h incubation, ratio of phosphorylated GSK3beta to total GSK3beta; read-out: IC50 values for inhibition of SGK-1 dependent phosphorylation of GSK3beta in U2OS cells
reported_property: pIC50
For clarity, pIC50 is expressed as the negative log10 of concentration in mol/L.

Cc1ccc(F)c(S(=O)(=O)Nc2ccc(-c3ncc4c(N)n[nH]c4n3)cc2)c1; 6.41
N#Cc1ccc(Cl)cc1S(=O)(=O)Nc1ccc(-c2nc(OC3CNC3)c3cn[nH]c3n2)cc1; 5.57
O=S(=O)(Nc1ccc(-c2nc(OC3CCC(O)CC3)c3cn[nH]c3n2)cc1F)c1cc(Cl)ccc1Cl (stereo not drawn); 6.96

Q: Give the observed pIC50 of `Cc1nc(-c2ccc(NS(=O)(=O)c3cccc(F)c3C#N)cc2)nc2[nH]nc(N)c12` for SGK-1 dependent phosphorylation of GSK3beta in U2OS cells.
A: 4.96

Q: Give the observed pIC50 of `CC(C)COc1nc(-c2ccc(NS(=O)(=O)c3cc(F)ccc3F)cc2)nc2[nH]nc(N)c12` for SGK-1 dependent phosphorylation of GSK3beta in U2OS cells.
A: 6.82

Q: Give the observed pIC50 of Cc1n[nH]c2nc(-c3ccc(NS(=O)(=O)c4ccccc4F)cc3)nc(OC3CCCNC3)c12 (stereo not drawn) for SGK-1 dependent phosphorylation of GSK3beta in U2OS cells.
A: 7.00

----------
# subject_of_test: recombinant human SGK-1 enzyme (Homo sapiens, UniProt O00141)
# Sequence (O00141 whole entry, looked up): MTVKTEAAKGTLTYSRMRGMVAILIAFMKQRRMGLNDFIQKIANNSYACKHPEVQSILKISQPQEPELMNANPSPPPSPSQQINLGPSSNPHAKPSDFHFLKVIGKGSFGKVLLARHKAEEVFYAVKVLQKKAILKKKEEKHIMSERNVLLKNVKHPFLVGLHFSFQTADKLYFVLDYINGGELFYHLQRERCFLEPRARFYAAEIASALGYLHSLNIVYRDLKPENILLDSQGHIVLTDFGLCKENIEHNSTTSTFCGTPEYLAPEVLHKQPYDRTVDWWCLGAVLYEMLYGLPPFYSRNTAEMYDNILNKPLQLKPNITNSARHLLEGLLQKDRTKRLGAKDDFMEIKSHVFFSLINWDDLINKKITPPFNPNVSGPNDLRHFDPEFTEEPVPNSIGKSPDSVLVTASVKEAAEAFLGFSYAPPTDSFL
# test_protocol: Enzymatic activity assay: SGK-1 substrate peptide phosphorylation (Caliper lab-chip mobility shift)
# Type: biochemical
# measurement_parameters: peptide substrate 1 μM, ATP 10 μM, 60 min at 37° C., read-out: IC50 values for inhibition of SGK-1 enzymatic activity
Consider the following compounds and their measured IC50 readings.
Please reply with the bare figure in nM and do not write the unit itself.

Record excerpt, results attached:
COCCc1nc(-c2ccc(NS(=O)(=O)c3cc(Cl)sc3Cl)cc2)nc2[nH]nc(N)c12 [Example 509]; 310
Cc1ccc(C#N)c(S(=O)(=O)Nc2ccc(-c3nc(OCC4CNCCO4)c4c(C)n[nH]c4n3)cc2)c1 (stereo not shown) [Example 293]; 3.2

// next entry
Q: Could you please provide reported IC50 for N#Cc1ccc(Cl)cc1S(=O)(=O)Nc1ccc(-c2nc(OC3CCC(O)CC3)c3cn[nH]c3n2)cc1 (stereo not shown) [Example 83] ? Thanks!
A: 2

----------
Consider the following compounds and their measured pIC50 readings.
# subject_of_test: recombinant human SGK-1 enzyme (Homo sapiens)
# test_protocol: Enzymatic activity assay: SGK-1 substrate peptide phosphorylation (Caliper lab-chip mobility shift)
# Format: biochemical
# measurement_parameters: peptide substrate 1 μM, ATP 10 μM, 60 min at 37° C., read-out: IC50 values for inhibition of SGK-1 enzymatic activity
For clarity, pIC50 is expressed as the negative log10 of concentration in mol/L.

COCCCN1CCC(Oc2nc(-c3ccc(NS(=O)(=O)c4cc(F)ccc4F)cc3)nc3[nH]ncc23)CC1; 6.92

// next entry
Q: Could you please provide reported pIC50 for `COc1ccc(F)c(S(=O)(=O)Nc2ccc(-c3cc4[nH]nc(C)c4c(OCCC(=O)N(C)C)n3)cc2)c1` ? Thanks!
A: 8.19

----------
# System: SGK-1 dependent phosphorylation of GSK3beta in U2OS cells
# test_protocol: SGK-1 dependent phosphorylation of GSK3beta in U2OS cells overexpressing recombinant SGK-1 and GSK3beta
# Assay type: cell-based, human
# measurement_parameters: U2OS cells, 6 h incubation, ratio of phosphorylated GSK3beta to total GSK3beta; read-out: IC50 values for inhibition of SGK-1 dependent phosphorylation of GSK3beta in U2OS cells
reported_property: pIC50
For clarity, pIC50 is expressed as the negative log10 of concentration in mol/L.

Record excerpt, results attached:
Nc1n[nH]c2nc(-c3ccc(NS(=O)(=O)c4cc(F)c(F)cc4Cl)cc3)ncc12; 6.57
Nc1n[nH]c2cc(-c3ccc(NS(=O)(=O)c4cc(Cl)c(F)cc4F)cc3)ncc12; 5.42
COc1ccc(Cl)c(S(=O)(=O)Nc2ccc(-c3nc(O[C@@H]4CCC(O)C4)c4cn[nH]c4n3)cc2)c1 (stereo partly drawn); 6.74
COc1ccc(Cl)c(S(=O)(=O)Nc2ccc(-c3nc(OCC4CNCCO4)c4cn[nH]c4n3)cc2)c1 (stereo not drawn); 7.72
Cc1ccc(F)c(S(=O)(=O)Nc2ccc(-c3nc(OC4CCNCC4F)c4c(C)n[nH]c4n3)cc2)c1 (stereo not drawn); 7.37
NCCCOc1nc(-c2ccc(NS(=O)(=O)c3cc(Cl)ccc3Cl)cc2)nc2[nH]ncc12; 6.55
O=S(=O)(Nc1ccc(-c2nc(N3CC(O)C3)c3cn[nH]c3n2)cc1F)c1cc(Cl)ccc1Cl; 5.74
COc1ccc(F)c(S(=O)(=O)Nc2ccc(-c3nc(OC4CCC(O)CC4)c4c(C)n[nH]c4n3)cc2)c1 (stereo not drawn); 6.77

Q: Give the observed pIC50 of `Cc1n[nH]c2nc(-c3ccc(NS(=O)(=O)c4cc(Cl)ccc4Cl)cc3)nc(OCCCN)c12` for SGK-1 dependent phosphorylation of GSK3beta in U2OS cells.
A: 7.01

Q: Give the observed pIC50 of `COCCc1nc(-c2ccc(NS(=O)(=O)c3cc(OC)ccc3F)cc2)nc2[nH]nc(N)c12` for SGK-1 dependent phosphorylation of GSK3beta in U2OS cells.
A: 6.52

----------
# subject_of_test: recombinant human SGK-1 enzyme (Homo sapiens)
# test_protocol: Enzymatic activity assay: SGK-1 substrate peptide phosphorylation (Caliper lab-chip mobility shift)
# Format: biochemical
# measurement_parameters: peptide substrate 1 μM, ATP 10 μM, 60 min at 37° C., read-out: IC50 values for inhibition of SGK-1 enzymatic activity
Consider the following compounds and their measured IC50 readings.
Please reply with the bare figure in nM and do not write the unit itself.

Record excerpt, results attached:
CC(C)COc1nc(-c2ccc(NS(=O)(=O)c3cc(F)ccc3F)cc2)nc2[nH]nc(N)c12; 170
Cc1n[nH]c2nc(-c3ccc(NS(=O)(=O)c4cc(Cl)ccc4F)cc3)nc(OCC3CNCCO3)c12 (stereo not drawn); 2.5
COc1ccc(Cl)c(S(=O)(=O)Nc2ccc(-c3nc(OC4CCCNC4)c4c(C)n[nH]c4n3)cc2)c1 (stereo not drawn); 4.5

Q: Give the observed IC50 of `CCOc1nc(-c2ccc(NS(=O)(=O)c3cc(Cl)ccc3F)cc2)cc2[nH]nc(C)c12` for recombinant human SGK-1 enzyme (Homo sapiens).
A: 23

Q: Give the observed IC50 of Cc1n[nH]c2nc(-c3ccc(NS(=O)(=O)c4ccccc4F)cc3)nc(OC3CCNCC3F)c12 (stereo not drawn) for recombinant human SGK-1 enzyme (Homo sapiens).
A: 1.8

Q: Give the observed IC50 of CCN1CCCC(Oc2nc(-c3ccc(NS(=O)(=O)c4cc(Cl)ccc4Cl)cc3)nc3[nH]nc(C)c23)C1 (stereo not drawn) for recombinant human SGK-1 enzyme (Homo sapiens).
A: 40

Q: Give the observed IC50 of Cc1n[nH]c2nc(-c3ccc(NS(=O)(=O)c4cc(Cl)ccc4F)cc3)nc(OC3CCCNC3)c12 (stereo not drawn) for recombinant human SGK-1 enzyme (Homo sapiens).
A: 1.3

Q: Give the observed IC50 of `Cc1ccc(C#N)c(S(=O)(=O)Nc2ccc(-c3ncc4c(C)n[nH]c4n3)cc2)c1` for recombinant human SGK-1 enzyme (Homo sapiens).
A: 2400

Q: Give the observed IC50 of `COc1ccc(Cl)c(S(=O)(=O)Nc2ccc(-c3cc4[nH]nc(C)c4c(Oc4ccc(OC)nc4)n3)cc2)c1` for recombinant human SGK-1 enzyme (Homo sapiens).
A: 25
